Tested on: Septoria tritici
Experiment: Activity against leaf blotch on wheat caused by Septoria tritici (microtiterplate test)
Type: cell-based
Conditions: Zymoseptoria tritici, 168 h; single active, 0.25 ppm; MTP, 405 nm, 7 days after inoculation; read-out: Observed efficacy
result_type: inhibition of growth at 0.25 ppm (%)

| compound | measured_on | data_value |
| --- | --- | --- |
| Cc1cc(C2=N[C@@H](C)C(C)(C)Oc3c(F)cccc32)cnc1C(F)F | Septoria tritici | 13 |
| OC(Cc1ccccc1Cl)(Cn1nc[nH]c1=S)C1(Cl)CC1 (centres unmarked) [Prothioconazol, prothioconazole, reference compound] | Septoria tritici | 42 |
| Cc1cc(C2=N[C@@H](C)[C@H](C)Oc3ccccc32)cnc1C(F)F | Septoria tritici | 26 |
| Cc1cc(C2=NC3(CC3)COc3c(F)cccc32)cnc1C(F)F | Septoria tritici | 0 |
| Cc1cc(C2=N[C@H](C)C(C)(C)Oc3ccccc32)cnc1C(F)F | Septoria tritici | 1 |
